Cited source: ChEMBL document CHEMBL1154288

Target: GABA-A receptor; alpha-1/beta-3/gamma-2 (Homo sapiens, UniProt P14867+P18507+P28472)
Sequence (P14867 whole entry): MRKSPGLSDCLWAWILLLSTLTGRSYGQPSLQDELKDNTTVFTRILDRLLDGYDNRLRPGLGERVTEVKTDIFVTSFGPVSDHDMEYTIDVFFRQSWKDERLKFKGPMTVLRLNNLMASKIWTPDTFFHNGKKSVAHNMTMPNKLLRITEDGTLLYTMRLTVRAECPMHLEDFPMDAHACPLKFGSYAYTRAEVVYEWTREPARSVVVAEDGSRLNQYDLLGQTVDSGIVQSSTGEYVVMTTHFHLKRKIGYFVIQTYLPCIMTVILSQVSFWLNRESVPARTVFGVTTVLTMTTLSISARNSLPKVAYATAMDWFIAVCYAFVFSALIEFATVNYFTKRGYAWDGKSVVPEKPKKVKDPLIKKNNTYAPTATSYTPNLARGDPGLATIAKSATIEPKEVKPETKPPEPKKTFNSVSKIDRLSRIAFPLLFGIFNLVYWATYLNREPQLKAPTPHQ
Sequence (P18507 whole entry): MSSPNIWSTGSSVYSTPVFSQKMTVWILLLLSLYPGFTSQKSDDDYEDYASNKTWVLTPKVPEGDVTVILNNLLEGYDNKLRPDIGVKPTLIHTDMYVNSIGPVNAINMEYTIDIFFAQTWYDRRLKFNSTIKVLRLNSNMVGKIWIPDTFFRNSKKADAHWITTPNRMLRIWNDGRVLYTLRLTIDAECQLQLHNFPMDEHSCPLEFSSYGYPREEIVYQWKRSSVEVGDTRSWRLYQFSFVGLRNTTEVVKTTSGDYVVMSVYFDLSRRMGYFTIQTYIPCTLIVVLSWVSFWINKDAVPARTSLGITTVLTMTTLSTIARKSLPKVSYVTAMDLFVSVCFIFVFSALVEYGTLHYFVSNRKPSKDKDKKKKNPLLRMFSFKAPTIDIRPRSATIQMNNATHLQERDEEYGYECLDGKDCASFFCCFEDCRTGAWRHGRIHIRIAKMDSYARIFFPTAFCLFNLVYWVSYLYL
Sequence (P28472 whole entry): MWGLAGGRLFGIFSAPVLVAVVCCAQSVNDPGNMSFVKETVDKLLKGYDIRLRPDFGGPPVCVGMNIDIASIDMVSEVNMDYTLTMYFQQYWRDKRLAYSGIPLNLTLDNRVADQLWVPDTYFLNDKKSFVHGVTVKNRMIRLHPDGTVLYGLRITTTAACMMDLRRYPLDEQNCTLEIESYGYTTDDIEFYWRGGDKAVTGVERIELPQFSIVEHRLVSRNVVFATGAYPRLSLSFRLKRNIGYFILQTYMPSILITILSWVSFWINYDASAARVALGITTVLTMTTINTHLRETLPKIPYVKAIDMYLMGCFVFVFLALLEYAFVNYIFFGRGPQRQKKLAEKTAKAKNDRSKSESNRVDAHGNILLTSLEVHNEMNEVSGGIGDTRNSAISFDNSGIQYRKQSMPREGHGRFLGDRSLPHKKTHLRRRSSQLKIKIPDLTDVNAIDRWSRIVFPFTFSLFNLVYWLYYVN
Experiment: Displacement of [3H]Flumazenil from cloned human GABA alpha-1-beta-3-gamma-2 receptor expressed in HEK293 cells
A collection of molecules and their measured Ki
Phrase the answer as number then unit, nothing more needed.

Clc1ncn2c1Cn1ncnc1-c1cc(Br)ccc1-2    33 nM
FC(F)c1ncn2c1Cn1ncnc1-c1cc(Cl)ccc1-2    53 nM

Prompt: Given the entry Clc1ccc2c(c1)-c1ncnn1Cc1c(Cl)ncn1-2 , report its measured Ki.
Completion: 15 nM

Prompt: Requested read-out: Ki. Entry: Cc1ncn2c1Cn1ncnc1-c1cc(Cl)ccc1-2
Completion: 18 nM

Prompt: Please report the recorded Ki for FC(F)c1ncn2c1Cn1ncnc1-c1cc(Br)ccc1-2 .
Completion: 174 nM

* * *

Target: GABA-A receptor; alpha-5/beta-3/gamma-2 (Homo sapiens) (UniProt P18507+P28472+P31644)
Experiment: Inverse agonist activity at human GABA alpha-5-beta-3-gamma-2 receptor expressed in Xenopus laevis oocyts by electrophysiology assay relative to GABA
Assay type: functional
Record True whenever Efficacy is at -40% or higher; record False when lower.

Cc1ncn2c1Cn1ncnc1-c1cccc(F)c1-2    False
Brc1ccc2c(c1)-c1ncnn1Cc1c(-c3cccs3)ncn1-2    True
Cc1ncn2c1Cn1ncnc1-c1c(F)cccc1-2    False

Prompt: Does Efficacy meet or surpass -40% for Cc1ncn2c1Cn1ncnc1-c1cc(I)ccc1-2 ?
Completion: False

Prompt: Evaluate O=C(Nc1ccc2c(c1)-c1ncnn1Cc1c(Cl)ncn1-2)C1CC1 : Efficacy at minimum -40%?
Completion: False

Prompt: Hello, I need to know if Cc1ncn2c1Cn1ncnc1-c1cc(C(F)(F)F)ccc1-2 has measured Efficacy not below -40%. Thanks!
Completion: True

Prompt: Is Efficacy for Cc1ncn2c1Cn1ncnc1-c1cc(OC(F)F)ccc1-2 at or above -40%?
Completion: False

Prompt: Is reported Efficacy greater than or equal to -40% here: COc1ccc2c(c1)-c1ncnn1Cc1c(C)ncn1-2
Completion: False

Prompt: Textbook exercise: given the entry Cc1ncn2c1Cn1ncnc1-c1c(Cl)cccc1-2 , state whether its Efficacy is greater than or equal to -40%.
Completion: False

Prompt: Form field: Efficacy at least -40%? Entry: Cc1ncn2c1Cn1ncnc1-c1cc(C(F)F)ccc1-2
Completion: False

Prompt: Kindly determine if Efficacy recorded for Cc1ccc2c(c1)-c1ncnn1Cc1c(C)ncn1-2 is above or exactly -40%.
Completion: True

Prompt: Given Cn1nccc1-c1ncn2c1Cn1ncnc1-c1cc(Br)ccc1-2 , state whether its Efficacy is at least -40%.
Completion: True

Prompt: Evaluate CS(=O)(=O)Nc1ccc2c(c1)-c1ncnn1Cc1c(Cl)ncn1-2 : Efficacy at minimum -40%?
Completion: True

* * *

Target: GABA-A receptor; alpha-5/beta-3/gamma-2 (Homo sapiens, UniProt P18507+P28472+P31644)
Assay: Displacement of [3H]Flumazenil from cloned human GABA alpha-5-beta-3-gamma-2 receptor expressed in HEK293 cells
Type: cell-based
# pKi annotations
Formally, pKi is defined as -log10 of the concentration c, with c in mol/L.

Clc1ncn2c1Cn1ncnc1-c1cc(-c3ccccc3)ccc1-2    8.20
Clc1ccc2c(c1)-c1ncnn1Cc1c(C3CC3)ncn1-2    8.03
Cc1ncn2c1Cn1ncnc1-c1cc(I)ccc1-2    8.36
CCC(F)(F)c1ncn2c1Cn1ncnc1-c1cc(F)ccc1-2    8.49
Clc1ncn2c1Cn1ncnc1-c1cc(NC3CC3)ccc1-2    8.66
Cc1ncn2c1Cn1ncnc1-c1cc(Br)ccc1-2    8.21
Cc1ncn2c1Cn1ncnc1-c1cc(C(F)(F)F)ccc1-2    7.74
Cc1nc(-c2ncn3c2Cn2ncnc2-c2cc(F)ccc2-3)no1    9.70
N#Cc1ccc2c(c1)-c1ncnn1Cc1c(Cl)ncn1-2    8.62
FC(F)c1ncn2c1Cn1ncnc1-c1cc(Br)ccc1-2    8.34

Prompt: Returns the measured pKi for the input compound. Input: Clc1ncn2c1Cn1ncnc1-c1cc(C3CC3)ccc1-2
Completion: 8.92

Prompt: Would you mind telling me what pKi value was observed for Cc1ncn2c1Cn1ncnc1-c1cc(F)ccc1-2 ?
Completion: 8.52

Prompt: State the recorded pKi for this entry: CS(=O)(=O)Nc1ccc2c(c1)-c1ncnn1Cc1c(Cl)ncn1-2
Completion: 7.27

Prompt: Name the reported pKi value associated with the compound Brc1ccc2c(c1)-c1ncnn1Cc1c(-c3cccs3)ncn1-2
Completion: 8.40

Prompt: What pKi value was documented for this compound, CC(=O)Nc1ccc2c(c1)-c1ncnn1Cc1c(Cl)ncn1-2 ?
Completion: 8.54

Prompt: Which pKi reading was recorded for the compound Cc1ncn2c1Cn1ncnc1-c1cc(OC(F)F)ccc1-2 ?
Completion: 8.74

Prompt: Look up pKi: C#CCNC(=O)c1ncn2c1Cn1ncnc1-c1cc(F)ccc1-2
Completion: 7.17

Prompt: Endpoint output: pKi of Clc1ncn2c1Cn1ncnc1-c1ccccc1-2 . Value?
Completion: 9.52

Prompt: Recorded pKi of Cc1ccc2c(c1)-c1ncnn1Cc1c(Cl)ncn1-2 , please.
Completion: 8.74

Prompt: Fill blank: measured pKi of the compound O=C(Nc1ccc2c(c1)-c1ncnn1Cc1c(Cl)ncn1-2)C1CC1 is ____.
Completion: 7.80

Prompt: Look up pKi: FC(F)c1ccc2c(c1)-c1ncnn1Cc1c(Cl)ncn1-2
Completion: 8.96

Prompt: Record request: pKi value, item Cc1ncn2c1Cn1ncnc1-c1ccccc1-2
Completion: 8.59

Prompt: # get_value(readout='pKi', item= Cc1ncn2c1Cn1ncnc1-c1c(F)cccc1-2 )
Completion: 9.00

Prompt: Entry CCS(=O)(=O)c1ncn2c1Cn1ncnc1-c1cc(Cl)ccc1-2 has what pKi?
Completion: 6.67

Prompt: Which pKi reading was recorded for the compound Cc1ncn2c1Cn1ncnc1-c1cc(C(F)F)ccc1-2 ?
Completion: 8.66

Prompt: Field request: pKi | item: COc1ccc2c(c1)-c1ncnn1Cc1c(C)ncn1-2
Completion: 8.11
